B1: VH:VL chains; a variant is named by its letters at X, in order (parent)
chain 1: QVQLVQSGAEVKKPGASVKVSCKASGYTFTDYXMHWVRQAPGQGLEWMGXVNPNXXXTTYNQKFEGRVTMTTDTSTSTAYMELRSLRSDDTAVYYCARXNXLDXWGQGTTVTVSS
chain 2: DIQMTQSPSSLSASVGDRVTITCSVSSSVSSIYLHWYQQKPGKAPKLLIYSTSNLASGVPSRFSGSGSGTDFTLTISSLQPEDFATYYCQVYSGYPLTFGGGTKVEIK

Variants of: B1
Assay: yeast display scFab, FACS + sequencing
Endpoint: non-specific binding call

# Mutant Code, Assay Result
measured = [
    ("DEARGAGD", "no binding"),
    ("YRAESAAA", "binds"),
    ("VTKETFSF", "no binding"),
    ("VKGGNVGV", "binds"),
    ("SKAENAWV", "binds"),
    ("SEARSSLA", "no binding"),
    ("YKAGDSVA", "no binding"),
    ("VRGGDAVS", "no binding"),
    ("VEKEGDGS", "no binding"),
    ("VEETSSLD", "no binding"),
    ("DEGRSVAA", "binds"),
    ("YRRGGVGA", "binds"),
    ("VRGGDDVF", "no binding"),
    ("ATGEDDVY", "no binding"),
    ("YRGKGSLA", "binds"),
    ("FRRGGAVD", "binds"),
    ("YATRGAAA", "binds"),
    ("FRAGGSGD", "binds"),
    ("FKARGASV", "binds"),
    ("VTGTGDGV", "no binding"),
    ("DRGGDDGS", "no binding"),
    ("SEARNAGD", "no binding"),
    ("VRGTGSAD", "binds"),
    ("VRGRSSGS", "binds"),
    ("YRGGASWV", "binds"),
    ("DEAGGDGY", "no binding"),
    ("YAGRGFGA", "binds"),
    ("YRRRGYVV", "binds"),
    ("DKEGGDGA", "no binding"),
    ("AETKGAAA", "no binding"),
    ("YRRGGSAV", "binds"),
    ("DRAGDASD", "no binding"),
    ("YRRRGASD", "binds"),
    ("DRRGDDGV", "no binding"),
    ("SKGRSDAV", "no binding"),
    ("SGEGGAAV", "no binding"),
    ("FKTKSDAV", "no binding"),
    ("AETKGALD", "no binding"),
    ("VRGKGAWA", "binds"),
    ("VKGRGSSF", "no binding"),
    ("DARGGDVY", "no binding"),
    ("YRRGSSLS", "binds"),
    ("DGARGALF", "binds"),
    ("YAKGDYSV", "no binding"),
    ("AATTDDAV", "no binding"),
    ("SAREGDWV", "no binding"),
]
